Property: pIC50; scope: individual compounds
# Tested on: L929 cell line
# METHOD: Cytotoxicity MTS assay, L929 cell line
# Format: cell-based
# STATED_CONDITIONS: MTS assay, 24 h exposure; ordinary fibroblast, not cancer cells
# Method: The positive compounds (IC50 < 100 μM) obtained from the primary Eg5 motor protein ATPase assay were tested for antiproliferative activity in vitro against Caco-2 cell line, Hela cell line, L929 cell line and T24 cell line by performing MTS assay. Cells were introduced into 96-well plates at a density of 1000 cells per well. After 24 h incubation, the cells were exposed with compounds at final concentrations ranging from 0.5 to 100 µM for 24 h. […]
Note on units: pIC50 is unitless, being -log10 of a concentration expressed in mol/L.

>  <COMPOUND>
CCOC(=O)c1[nH]c(C2NC(=O)NC(C)=C2C(=O)Nc2ccc(Cl)cc2)c(C(=O)OCC)c1C (stereo not shown)

>  <TARGET_OR_SYSTEM>
L929 cell line

>  <pIC50>
4.02

$$$$
>  <COMPOUND>
COC(=O)c1[nH]c(C2NC(=S)NC(C)=C2C(=O)c2ccccc2)c(C(=O)OC)c1C (stereo not shown)

>  <TARGET_OR_SYSTEM>
L929 cell line

>  <pIC50>
3.86

$$$$

# input for lookup
Sample CCOC(=O)c1[nH]c(C2NC(=S)NC(C)=C2C(=O)OC)c(C(=O)OCC)c1C (stereo not shown) ; pIC50 observed: 3.92

###

Entries and their OD490 Well 1 values follow.
# Test system: T24 cell line
# METHOD: Cytotoxicity MTS assay, T24 cell line;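 as to OD490 Well 1: blank control wells received 0.025% DMSO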
# Format: cell-based
# STATED_CONDITIONS: T24 cell line, 0.5μM, first assay
I only need the number, thanks.

Reference set, count: 5
>  <MOLECULE>
CCOC(=O)c1c(C2NC(=O)NC(C)=C2C(=O)Nc2ccccc2C)[nH]c(C(=O)OC)c1C (stereo not drawn) [D2]

>  <OD490 Well 1>
1.8720

$$$$
>  <MOLECULE>
COC(=O)c1[nH]c(C2NC(=S)NC(C)=C2C(=O)c2ccccc2)c(C(=O)OC)c1C (stereo not drawn) [D14]

>  <OD490 Well 1>
1.0996

$$$$
>  <MOLECULE>
CCOc1ccccc1C1NC(=S)NC(C)=C1C(=O)Nc1ccc(Cl)cc1 (stereo not drawn) [C9]

>  <OD490 Well 1>
1.7105

$$$$
>  <MOLECULE>
CCOC(=O)c1[nH]c(C2NC(=O)NC(C)=C2C(=O)Nc2ccccc2C)c(C(=O)OC)c1C (stereo not drawn) [D4]

>  <OD490 Well 1>
1.4364

$$$$
>  <MOLECULE>
CCOC(=O)c1[nH]c(C2NC(=O)NC(C)=C2C(=O)Nc2ccc(Cl)cc2)c(C(=O)OCC)c1C (stereo not drawn) [D7]

>  <OD490 Well 1>
1.2491

$$$$

OD490 Well 1 for T24 cell line with input CCOC(=O)c1c(C2NC(=O)NC(C)=C2C(=O)Nc2ccccc2OC)[nH]c(C(=O)OC)c1C (stereo not drawn) [D1] equals 1.9580

###

# System: Caco-2 cell line
# METHOD: Cytotoxicity MTS assay, Caco-2 cell line
# Format: cell-based
# STATED_CONDITIONS: 50μM; second assay; Caco-2 cell line
ENDPOINT_LABEL: OD490 Well 3
Enter the number alone.

Reference set (5 entries):
>  <COMPOUND>
CCOC(=O)c1c(C2NC(=O)NC(C)=C2C(=O)Nc2ccccc2)[nH]c(C(=O)OC)c1C (stereo not shown)

>  <OD490 Well 3>
0.4969

$$$$
>  <COMPOUND>
CCOC(=O)c1c(C2NC(=O)NC(C)=C2C(=O)Nc2ccccc2OC)[nH]c(C(=O)OC)c1C (stereo not shown) [D1]

>  <OD490 Well 3>
0.5531

$$$$
>  <COMPOUND>
COC(=O)c1[nH]c(C2NC(=S)NC(C)=C2C(=O)c2ccccc2)c(C(=O)OC)c1C (stereo not shown)

>  <OD490 Well 3>
0.4732

$$$$
>  <COMPOUND>
CCOC(=O)C1=C(C)NC(=S)NC1c1cccc(O)c1 (stereo not shown) [Monastrol, monastrol, reference compound]

>  <OD490 Well 3>
0.5598

$$$$
>  <COMPOUND>
CCOC(=O)c1c(C2NC(=O)NC(C)=C2C(=O)Nc2ccccc2C)[nH]c(C(=O)OC)c1C (stereo not shown) [D2]

>  <OD490 Well 3>
0.5324

$$$$

In plain terms, CCOC(=O)c1[nH]c(C2NC(=O)NC(C)=C2C(=O)Nc2ccccc2OC)c(C(=O)OC)c1C (stereo not shown) has a documented OD490 Well 3 of 0.6501

The value of OD490 Well 3 measured for the compound CCOc1ccccc1C1NC(=S)NC(C)=C1C(=O)Nc1ccc(Cl)cc1 (stereo not shown) turned out to be 0.3721

// CCOC(=O)c1[nH]c(C2NC(=O)NC(C)=C2C(=O)Nc2ccc(Cl)cc2)c(C(=O)OCC)c1C (stereo not shown) : OD490 Well 3 value = 0.4332

get_value(item= CCOC(=O)c1[nH]c(C2NC(=S)NC(C)=C2C(=O)OC)c(C(=O)OCC)c1C (stereo not shown) , readout=OD490 Well 3) returns 0.5302

Consider CCOC(=O)c1[nH]c(C2NC(=O)NC(C)=C2C(=O)Nc2ccccc2C)c(C(=O)OC)c1C (stereo not shown) . Its measured OD490 Well 3 is 0.4486

###

# Test system: Hela cell line
# METHOD: Cytotoxicity MTS assay, Hela cell line;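 also: blank control wells received 0.025% DMSO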
# Assay type: cell-based
# STATED_CONDITIONS: Hela cell line, MTS, 50μM, first assay
ENDPOINT_LABEL: OD490 value, Well 1
Lab note: jot down the number only; don't add units.

// worked examples, OD490 value, Well 1 included
>  <MOLECULE>
CCOC(=O)c1[nH]c(C2NC(=S)NC(C)=C2C(=O)OC)c(C(=O)OCC)c1C (stereo not shown) [D12]

>  <TARGET_OR_SYSTEM>
Hela cell line

>  <QUANTITATIVE_RESULT>
2.3673

$$$$
>  <MOLECULE>
CCOC(=O)c1[nH]c(C2NC(=O)NC(C)=C2C(=O)Nc2ccccc2C)c(C(=O)OC)c1C (stereo not shown) [D4]

>  <TARGET_OR_SYSTEM>
Hela cell line

>  <QUANTITATIVE_RESULT>
2.2013

$$$$
>  <MOLECULE>
CCOc1ccccc1C1NC(=S)NC(C)=C1C(=O)Nc1ccc(Cl)cc1 (stereo not shown) [C9]

>  <TARGET_OR_SYSTEM>
Hela cell line

>  <QUANTITATIVE_RESULT>
1.2953

$$$$

Could you now consider this next molecule?
Lab note: CCOC(=O)c1[nH]c(C2NC(=O)NC(C)=C2C(=O)Nc2ccccc2OC)c(C(=O)OC)c1C (stereo not shown) [D3] gave OD490 value, Well 1 of 2.3872

###

Reported pIC50 values for the following compounds.
# Test system: T24 cell line
# METHOD: Cytotoxicity MTS assay, T24 cell line
# Assay type: cell-based
# STATED_CONDITIONS: Homo sapiens, T-24; MTS assay, 24 h exposure
Friendly reminder that pIC50 comes from taking -log10 of the concentration in mol/L.

>  <COMPOUND>
CCOC(=O)C1=C(C)NC(=S)NC1c1cccc(O)c1 (centres unmarked) [Monastrol, monastrol, reference compound]

>  <pIC50>
3.89

$$$$

Moving on to the next compound.
// recorded pIC50 for CCOc1ccccc1C1NC(=S)NC(C)=C1C(=O)Nc1ccc(Cl)cc1 (centres unmarked) : 3.99

###

# System: Hela cell line
# METHOD: Cytotoxicity MTS assay, Hela cell line;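 also: blank control wells received 0.025% DMSO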
# Format: cell-based
# STATED_CONDITIONS: Hela cell line, MTS, 50μM, third assay
ENDPOINT_LABEL: OD490 value, Mean
Output: the number by itself.

Please review the entries below; each comes with its answer.
>  <MOLECULE>
CCOC(=O)c1[nH]c(C2NC(=O)NC(C)=C2C(=O)Nc2ccccc2C)c(C(=O)OC)c1C (stereo not shown) [D4]

>  <QUANTITATIVE_RESULT>
2.5366

$$$$
>  <MOLECULE>
CCOC(=O)c1[nH]c(C2NC(=O)NC(C)=C2C(=O)Nc2ccccc2OC)c(C(=O)OC)c1C (stereo not shown) [D3]

>  <QUANTITATIVE_RESULT>
2.2950

$$$$

Record CCOc1ccccc1C1NC(=S)NC(C)=C1C(=O)Nc1ccc(Cl)cc1 (stereo not shown) [C9] , field OD490 value, Mean: 1.6911

The reported value for CCOC(=O)c1[nH]c(C2NC(=S)NC(C)=C2C(=O)OC)c(C(=O)OCC)c1C (stereo not shown) [D12] in terms of OD490 value, Mean is 2.5184

###

# System: Hela cell line
# METHOD: Cytotoxicity MTS assay, Hela cell line;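 also: blank control wells received 0.025% DMSO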
# Type: cell-based
# STATED_CONDITIONS: Hela cell line, MTS, 0.5μM, first assay
ENDPOINT_LABEL: OD490 value, Well 2
Respond using a number only.

Looking up CCOC(=O)c1[nH]c(C2NC(=S)NC(C)=C2C(=O)OC)c(C(=O)OCC)c1C (centres unmarked) [D12] , I found its OD490 value, Well 2 recorded as 2.4821

OD490 value, Well 2 reading for CCOC(=O)c1[nH]c(C2NC(=O)NC(C)=C2C(=O)Nc2ccccc2C)c(C(=O)OC)c1C (centres unmarked) [D4] : 2.6787

# OD490 value, Well 2 (molecule: CCOC(=O)c1[nH]c(C2NC(=O)NC(C)=C2C(=O)Nc2ccccc2OC)c(C(=O)OC)c1C (centres unmarked) [D3] ) is 2.6032

Record CCOC(=O)c1c(C2NC(=O)NC(C)=C2C(=O)Nc2ccccc2C)[nH]c(C(=O)OC)c1C (centres unmarked) [D2] . Reported OD490 value, Well 2: 2.7230

Numbers sourced from paper PMC8037182.
